Source listed as ChEMBL document CHEMBL1136010.

# target: Cyclin-dependent kinase 4/cyclin D1 (Homo sapiens, UniProt P11802)
# Sequence (P11802 whole entry): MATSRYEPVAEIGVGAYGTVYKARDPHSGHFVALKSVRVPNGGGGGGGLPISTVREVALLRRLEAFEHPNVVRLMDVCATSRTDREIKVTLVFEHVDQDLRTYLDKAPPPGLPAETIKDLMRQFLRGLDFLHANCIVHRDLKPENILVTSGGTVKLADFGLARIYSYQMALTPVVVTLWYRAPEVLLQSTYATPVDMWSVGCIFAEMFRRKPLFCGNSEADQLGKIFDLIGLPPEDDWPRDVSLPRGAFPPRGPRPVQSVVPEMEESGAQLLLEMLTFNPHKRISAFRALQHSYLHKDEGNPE
# Sequence (P24385 whole entry, further chain): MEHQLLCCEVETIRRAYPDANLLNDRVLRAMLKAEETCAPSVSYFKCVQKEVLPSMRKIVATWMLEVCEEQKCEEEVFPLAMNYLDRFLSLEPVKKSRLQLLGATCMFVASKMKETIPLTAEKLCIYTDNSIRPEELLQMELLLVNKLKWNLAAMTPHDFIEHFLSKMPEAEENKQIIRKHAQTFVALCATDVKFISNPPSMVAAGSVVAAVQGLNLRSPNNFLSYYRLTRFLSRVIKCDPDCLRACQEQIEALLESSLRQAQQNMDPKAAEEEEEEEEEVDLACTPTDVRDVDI
# measurement protocol: Inhibitory concentration against Cyclin-dependent kinase 4-cyclin D1
# Type: protein-complex assay
pIC50: −log10 of the molar value.
measurement label: pIC50

[[record]]
structure_as_smiles = "Cc1ccc(-c2[nH]nc3c2C(=O)c2c(NC(N)=O)cccc2-3)s1"
value_reported = 7.28


(a) NC(=O)Nc1cccc2c1C(=O)c1c(-c3csc(Cl)c3)n[nH]c1-2
(b) O=C(CN1CCC(O)CC1)Nc1cccc2c1C(=O)c1c-2n[nH]c1-c1ccc(N2CCOCC2)cc1
(c) CCOC(=O)c1ccc(-c2[nH]nc3c2C(=O)c2c(NC(N)=O)cccc2-3)s1
hey, can you rank those compounds up there by pIC50? biggest number first please Please write the labels in the order that was asked for.
a, b, c

----------
# target: Cyclin-dependent kinase 4/cyclin D1 (Homo sapiens, UniProt P11802)
# measurement protocol: Inhibitory concentration against Cyclin-dependent kinase 4-cyclin D1
measurement label: IC50 (nM)

(a) CN(C)c1ccc(-c2[nH]nc3c2C(=O)c2c(NC(=O)CN4CCOCC4)cccc2-3)cc1
(b) CN(C)c1ccc(-c2[nH]nc3c2C(=O)c2c(NC(=O)CN4CCC(CN)CC4)cccc2-3)cc1
Could you point out whether the larger IC50 belongs to a or to b ? Answer by quoting the chosen item's label.
a
(a: 110 nM, b: 7 nM)

----------
# Test system: B16
# measurement protocol: Inhibitory activity against B16-F1 cell line
# Assay type: functional, cell-based
# measurement parameters: Mus musculus
measurement label: IC50 (nM)
Could you give me the number in nM? Just the number is fine.

Reported IC50 of NC(=O)Nc1cccc2c1C(=O)c1c(-c3csc(Cl)c3)n[nH]c1-2 : 200

----------
# Test system: HT-29
# measurement protocol: Inhibition of HT-29 cell proliferation
# Type: functional, cell-based
# measurement parameters: Homo sapiens
measurement label: IC50

Reported IC50 of NC(=O)Nc1cccc2c1C(=O)c1c(-c3csc(Cl)c3)n[nH]c1-2 : > 2900 nM

----------
# target: Cyclin-dependent kinase 4/cyclin D1 (Homo sapiens)
# measurement protocol: Inhibitory concentration against Cyclin-dependent kinase 4-cyclin D1
pIC50: −log10 of the molar value.
measurement label: pIC50

(a) CC(=O)Nc1cccc2c1C(=O)c1c-2n[nH]c1-c1ccc(O)cc1
(b) CN(C)c1ccc(-c2[nH]nc3c2C(=O)c2c(NC(=O)CN4CCC(O)CC4)cccc2-3)cc1
(c) NC(=O)Nc1cccc2c1C(=O)c1c-2n[nH]c1-c1cccs1
(d) NCC1CCN(CC(=O)Nc2cccc3c2C(=O)c2c-3n[nH]c2-c2ccc(N3CCOCC3)cc2)CC1
Write the entries in order, lowest recorded pIC50 first. Please write the labels in the order that was asked for.
a, c, b, d

----------
# target: Cyclin-dependent kinase 4/cyclin D1 (Homo sapiens)
# measurement protocol: Inhibitory concentration against Cyclin-dependent kinase 4-cyclin D1
# Assay type: protein-complex assay
measurement label: IC50 (nM)

[[record]]
structure_as_smiles = "CC(=O)Nc1cccc2c1C(=O)c1c(-c3ccccc3)n[nH]c1-2"
value_reported = 840

[[record]]
structure_as_smiles = "CCCc1ccc(-c2[nH]nc3c2C(=O)c2c(NC(C)=O)cccc2-3)cc1"
value_reported = 1900


(P) CC(=O)Nc1cccc2c1C(=O)c1c-2n[nH]c1-c1ccc(N2CCCCC2)cc1
(Q) NC(=O)Nc1cccc2c1C(=O)c1c-2n[nH]c1C1CC1
Could you point out whether the larger IC50 belongs to P or to Q ? Answer by quoting the chosen item's label.
Q

----------
# target: Cyclin-dependent kinase 1/cyclin B (Homo sapiens, UniProt P06493)
# measurement protocol: Inhibition of Cyclin-dependent kinase 1-cyclin B
# Type: protein-complex assay
measurement label: pIC50
Please keep in mind that pIC50 is minus log10 of the molar concentration; only the number is needed.

Reported pIC50 of NC(=O)Nc1cccc2c1C(=O)c1c(-c3csc(Cl)c3)n[nH]c1-2 : 7.36

----------
# target: Cyclin-dependent kinase 4/cyclin D1 (Homo sapiens, UniProt P11802)
# measurement protocol: Inhibitory concentration against Cyclin-dependent kinase 4-cyclin D1
measurement label: IC50 (nM)

Recorded IC50, per entry:
[[record]]
structure_as_smiles = "NC(=O)Nc1cccc2c1C(=O)c1c-2n[nH]c1-c1ccsc1"
value_reported = 67

[[record]]
structure_as_smiles = "NCC1CCN(CC(=O)Nc2cccc3c2C(=O)c2c-3n[nH]c2C2CC2)CC1"
value_reported = 430

[[record]]
structure_as_smiles = "CN1CCN(CC(=O)Nc2cccc3c2C(=O)c2c-3n[nH]c2-c2ccc(N3CCOCC3)cc2)CC1"
value_reported = 190

[[record]]
structure_as_smiles = "CCc1[nH]nc2c1C(=O)c1c(NC(=O)CN3CCC(CN)CC3)cccc1-2"
value_reported = 1300


(I) CC(=O)Nc1cccc2c1C(=O)c1c-2n[nH]c1-c1ccc(N2CCOCC2)cc1
(II) COc1ccc(-c2[nH]nc3c2C(=O)c2c(NC(=O)CN4CCC(CN)CC4)cccc2-3)cc1
Could you point out whether the larger IC50 belongs to I or to II ? Answer by quoting the chosen item's label.
I
(I: 860 nM, II: 13 nM)

----------
# target: Cyclin-dependent kinase 2/cyclin E (Homo sapiens, UniProt P24941)
# measurement protocol: Inhibitory concentration against Cyclin-dependent kinase 2-cyclin E
pIC50: −log10 of the molar value.
measurement label: pIC50

Recorded pIC50, per entry:
[[record]]
structure_as_smiles = "O=C(CN1CCOCC1)Nc1cccc2c1C(=O)c1c-2n[nH]c1-c1ccc(N2CCOCC2)cc1"
value_reported = 7.43

[[record]]
structure_as_smiles = "CC(C)c1[nH]nc2c1C(=O)c1c(NC(=O)CN3CCC(CN)CC3)cccc1-2"
value_reported = 7.32

[[record]]
structure_as_smiles = "CC(=O)Nc1cccc2c1C(=O)c1c-2n[nH]c1C"
value_reported = 4.96

[[record]]
structure_as_smiles = "CN1CCN(CC(=O)Nc2cccc3c2C(=O)c2c-3n[nH]c2-c2ccc(N3CCOCC3)cc2)CC1"
value_reported = 7.38

[[record]]
structure_as_smiles = "CC(=O)Nc1cccc2c1C(=O)c1c(-c3ccc(C)cc3)n[nH]c1-2"
value_reported = 6.80


(A) CC(=O)Nc1cccc2c1C(=O)c1c-2n[nH]c1C1CC1
(B) CC(=O)Nc1cccc2c1C(=O)c1c-2n[nH]c1-c1ccc(N2CCCCC2)cc1
(C) CC(=O)Nc1cccc2c1C(=O)c1c-2n[nH]c1-c1sccc1C
hey, can you rank those compounds up there by pIC50? biggest number first please Please write the labels in the order that was asked for.
C, A, B

(P) CN(C)c1ccc(-c2[nH]nc3c2C(=O)c2c(NC(=O)CN4CCOCC4)cccc2-3)cc1
(Q) CC(=O)Nc1cccc2c1C(=O)c1c-2n[nH]c1-c1cccs1
(R) O=C(CN1CCC(O)CC1)Nc1cccc2c1C(=O)c1c-2n[nH]c1-c1ccc(N2CCOCC2)cc1
(S) CC(=O)Nc1cccc2c1C(=O)c1c-2n[nH]c1-c1cccnc1
(T) CC(=O)Nc1cccc2c1C(=O)c1c-2n[nH]c1-c1ccc(N(C)C)cc1
Rank the items in ascending order with respect to pIC50. Please write the labels in the order that was asked for.
S, T, Q, R, P

(I) CN1CCN(CC(=O)Nc2cccc3c2C(=O)c2c-3n[nH]c2-c2ccc(N(C)C)cc2)CC1
(II) Cc1ccsc1-c1[nH]nc2c1C(=O)c1c(NC(N)=O)cccc1-2
(III) Cc1cc(-c2[nH]nc3c2C(=O)c2c(NC(N)=O)cccc2-3)c(C)s1
hey, can you rank those compounds up there by pIC50? biggest number first please Please write the labels in the order that was asked for.
II, I, III
(II: 7.77, I: 7.54, III: 7.21)

(A) NC(=O)C1CCN(CC(=O)Nc2cccc3c2C(=O)c2c-3n[nH]c2C2CCCCC2)CC1
(B) CC(=O)Nc1cccc2c1C(=O)c1c(-c3ccccc3)n[nH]c1-2
# min-compare on pIC50 between A and B Answer by quoting the chosen item's label.
B
(B: 6.62, A: 7.44)

----------
# Test system: AG1523
# measurement protocol: Effective concentration against normal human fibroblast cell line AG1523
# Type: functional, cell-based
pEC50: −log10 of the molar value.
measurement label: pEC50

Reported pEC50 of NC(=O)Nc1cccc2c1C(=O)c1c(-c3csc(Cl)c3)n[nH]c1-2 : < 4.54

----------
# target: Cyclin-dependent kinase 4/cyclin D1 (Homo sapiens, UniProt P11802)
# measurement protocol: Inhibitory concentration against Cyclin-dependent kinase 4-cyclin D1
pIC50: −log10 of the molar value.
measurement label: pIC50

Recorded pIC50, per entry:
[[record]]
structure_as_smiles = "O=C(CN1CCOCC1)Nc1cccc2c1C(=O)c1c-2n[nH]c1-c1ccc(N2CCOCC2)cc1"
measurement_label = "pIC50"
value_reported = 6.92

[[record]]
structure_as_smiles = "CC(C)c1[nH]nc2c1C(=O)c1c(NC(=O)CN3CCC(CN)CC3)cccc1-2"
measurement_label = "pIC50"
value_reported = 6.47

[[record]]
structure_as_smiles = "CC(=O)Nc1cccc2c1C(=O)c1c-2n[nH]c1-c1ccc(N(C)C)cc1"
measurement_label = "pIC50"
value_reported = 6.51


(1) Cc1ccsc1-c1[nH]nc2c1C(=O)c1c(NC(N)=O)cccc1-2
(2) CC(=O)Nc1cccc2c1C(=O)c1c-2n[nH]c1-c1ccncc1
(3) Cn1ccc(-c2[nH]nc3c2C(=O)c2c(NC(N)=O)cccc2-3)c1
(4) CCc1ccc(-c2[nH]nc3c2C(=O)c2c(NC(C)=O)cccc2-3)cc1
hey, can you rank those molecules up there by pIC50? biggest number first please Please write the labels in the order that was asked for.
3, 1, 4, 2
(3: 6.89, 1: 6.46, 4: 6.19, 2: 5.89)
